# study-target: full-length human RORγt (Homo sapiens (Human), UniProt P51449)
# Sequence (P51449 other isoform, or with tags, fused parts or gaps): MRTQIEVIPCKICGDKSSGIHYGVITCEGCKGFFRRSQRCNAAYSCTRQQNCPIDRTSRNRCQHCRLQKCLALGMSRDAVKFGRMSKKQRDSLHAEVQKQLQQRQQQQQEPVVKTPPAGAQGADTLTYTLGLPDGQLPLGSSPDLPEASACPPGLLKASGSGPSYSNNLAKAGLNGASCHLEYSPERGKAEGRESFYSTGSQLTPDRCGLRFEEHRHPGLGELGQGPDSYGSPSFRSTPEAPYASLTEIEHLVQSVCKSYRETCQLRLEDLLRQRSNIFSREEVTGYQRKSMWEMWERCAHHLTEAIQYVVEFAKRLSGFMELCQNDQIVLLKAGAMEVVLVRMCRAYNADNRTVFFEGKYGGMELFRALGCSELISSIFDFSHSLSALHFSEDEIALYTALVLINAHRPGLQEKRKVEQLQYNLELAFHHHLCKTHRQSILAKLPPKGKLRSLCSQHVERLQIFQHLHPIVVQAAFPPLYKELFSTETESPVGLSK
# test-summary: RORγt (full-length human) reporter assay, conditions A or B, HEK293T cells
# Format: cell-based
# test-settings: HEK-293T; 3 μM compound concentration (footnote *); read-out: RORγt (FL) Reporter Assay A or B, % inhibition
Where a name gives a salt, the structure may show the parent alone.
outcome-measure: inhibition at 3 µM (%)

Known inhibition at 3 µM results, listed for orientation:
CCn1nc(C(=O)NC[C@]2(O)CC[C@@H](S(N)(=O)=O)CC2)c(Cl)c1-c1ccc(CC(C)(C)C(F)(F)F)cc1OC(F)F : 120
Cn1nc(C(=O)NC[C@]2(O)CC[C@@H](S(C)(=O)=O)CC2)c(Cl)c1-c1ccc(CCCC(F)(F)F)cc1OC(F)F : 111
CCn1nc(C(=O)NC[C@H]2CC[C@H](S(C)(=O)=O)CC2)c(Cl)c1-c1ccc(C2(O)CCC(C(F)(F)F)CC2)cc1OC(F)F (single isomer, unassigned) : 89

[a] CCn1nc(C(=O)NC[C@@H]2CC[C@@H](S(C)(=O)=O)CN2)c(Cl)c1-c1ccc(CC(C)(C)C(F)(F)F)cc1OC(F)F (stereo in doubt) [Example 10, hydrobromide]
[b] CCn1nc(C(=O)NC[C@]2(O)CC[C@@H](S(C)(=O)=O)CC2)c(Cl)c1-c1ccc([C@@](C)(O)CC(F)(F)F)cc1OC(F)F (single isomer, unassigned)
Problem: Smaller inhibition at 3 µM value, a vs b ? In your reply, give the label of the chosen option.
Solution: b
(b: -21%, a: 103%)

Where do the numbers come from? From patent US10975037B2.
